The reported numbers originate from ChEMBL document CHEMBL4689842.

Consider the following compounds; for each one, report its Population Tubulin-Different-Phenotype (%).
- System: HEK-293T
- Assay Method Text: Multiplex assay against HEK293T;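 also: share of the cells with healthy nuclei that show this phenotype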
- Format: toxicity, cell-based
- Condition Label: human, 24 h, 10 µM, compound concentration 10 uM, replicate 2
Give the number; % is assumed, so skip it.

The value of Population Tubulin-Different-Phenotype (%) measured for the compound Cc1c(-c2ccc(O)cc2)n(Cc2ccc(OCCN3CCCCCC3)cc2)c2ccc(O)cc12 [BAZEDOXIFENE] turned out to be 88

The recorded Population Tubulin-Different-Phenotype (%) for entry O=C1NCN(c2ccccc2)C12CCN(CCCOc1ccc(F)cc1)CC2 [SPIRAMIDE] equals 59

Note to self: Population Tubulin-Different-Phenotype (%) recorded for C[C@@H](NCCCc1cccc(C(F)(F)F)c1)c1cccc2ccccc12.Cl [CINACALCET HYDROCHLORIDE] was 84

----------
So I've got a bunch of compounds here, and I need their Population Normal (%) values.
- Test system: Fibroblast
- Assay Method Text: Multiplex assay against human fibroblast
- Assay type: toxicity, cell-based
- Condition Label: 12 h, 1 µM, compound concentration 1 uM, replicate 2
Please append the unit to your numeric answer.

Sample C=CC(=O)Nc1ccc2ncnc(Nc3ccc(OCc4cccc(F)c4)c(Cl)c3)c2c1.Cc1ccc(S(=O)(=O)O)cc1 , system: Fibroblast. Its Population Normal (%) is 94%

Entry C=CC(=O)Nc1cccc(C(=O)Nc2ccc(Nc3cc(-c4[nH]c(SC)nc4C)ccn3)cc2)c1 : Population Normal (%) on Fibroblast = 85%

Considering C=CC(=O)Nc1cc2c(Nc3ccc(F)c(Cl)c3)ncnc2cc1OCCCN1CCOCC1.Cl.Cl [CANERTINIB DIHYDROCHLORIDE] , its Population Normal (%) with Fibroblast was recorded as 60%

Hey, Fibroblast data for Cl.N#Cc1ccc2[nH]cc(CCCCN3CCN(c4ccc5oc(C(N)=O)cc5c4)CC3)c2c1 [VILAZODONE HYDROCHLORIDE] : Population Normal (%) came out at 97%

The compound COc1ncc(-c2ccc3nccc(-c4ccnnc4)c3c2)cc1NS(=O)(=O)c1ccc(F)cc1F , when measured on Fibroblast, yielded Population Normal (%) of 92%

Noted Population Normal (%) for COc1cccc([C@@H](C)NCCCc2ccccc2Cl)c1.Cl [TECALCET HYDROCHLORIDE] , tested on Fibroblast: 89%

The reported Fibroblast Population Normal (%) of C[C@@]1(C(=O)Nc2ccc(F)nc2)CCCN1c1nc(Nc2cc(C3CC3)n[nH]2)c2cccn2n1 is 71%

Entry CC[C@H](C)C(=O)O[C@H]1C[C@@H](C)C=C2C=C[C@H](C)[C@H](CC[C@@H]3C[C@@H](O)CC(=O)O3)[C@H]21 under Fibroblast had Population Normal (%) of 88%

Summary line: NC(=O)Nc1cc(-c2cccc(F)c2)sc1C(=O)N[C@H]1CCCNC1 , Fibroblast, reported Population Normal (%) = 70%

The recorded Population Normal (%) with Fibroblast for CC(C)NCC(O)COc1ccc(CCOCC2CC2)cc1.Cl (stereo unspecified) [BETAXOLOL HYDROCHLORIDE] was 83%

Measured Population Normal (%) (Fibroblast), entry COc1cc(-n2cnc3cc(-c4ccc(Cl)cc4)sc3c2=O)ccc1OCCN1CCCC1 : 84%

Readout Population Normal (%) for CN1CCN(c2ccc(OC(F)(F)F)c(Nc3ncc4c(n3)-c3c(c(C(N)=O)nn3CCO)CC4)c2)CC1 , test system Fibroblast, was 85%

// assay Fibroblast, entry c1cn2cc(-c3ccc4cn[nH]c4c3)nc(Nc3ccc(N4CCOCC4)cc3)c2n1 , Population Normal (%) value = 94%

# Population Normal (%) measured on Fibroblast for item CN(C)CC#Cc1ccc(OCCCc2sc(N3CCc4cccc(C(=O)Nc5nc6ccccc6s5)c4C3)nc2C(=O)O)c(F)c1 = 95%

Value (Population Normal (%), Fibroblast) for record Cc1nc(Nc2n[nH]c3c2CN(C(=O)N[C@H](CN(C)C)c2ccccc2)C3(C)C)c2sccc2n1 = 71%

Value (Population Normal (%), Fibroblast) for record Cc1[nH]c(/C=C2\C(=O)Nc3ccc(S(=O)(=O)N(C)c4cccc(Cl)c4)cc32)c(C)c1C(=O)N1CCN(C)CC1 = 87%
